Entries annotated with measured DC50
- measurementTarget: BRAF V600E (Homo sapiens, UniProt P15056+Q96SW2, V600E)
- Construct: knock-in of the HiBiT tag to the endogenous BRAF V600E locus; host or cells: A375.10 (A375 clonal line, CRISPR HiBiT knock-in at the endogenous BRAF V600E locus)
- Sequence (P15056 whole entry V600E): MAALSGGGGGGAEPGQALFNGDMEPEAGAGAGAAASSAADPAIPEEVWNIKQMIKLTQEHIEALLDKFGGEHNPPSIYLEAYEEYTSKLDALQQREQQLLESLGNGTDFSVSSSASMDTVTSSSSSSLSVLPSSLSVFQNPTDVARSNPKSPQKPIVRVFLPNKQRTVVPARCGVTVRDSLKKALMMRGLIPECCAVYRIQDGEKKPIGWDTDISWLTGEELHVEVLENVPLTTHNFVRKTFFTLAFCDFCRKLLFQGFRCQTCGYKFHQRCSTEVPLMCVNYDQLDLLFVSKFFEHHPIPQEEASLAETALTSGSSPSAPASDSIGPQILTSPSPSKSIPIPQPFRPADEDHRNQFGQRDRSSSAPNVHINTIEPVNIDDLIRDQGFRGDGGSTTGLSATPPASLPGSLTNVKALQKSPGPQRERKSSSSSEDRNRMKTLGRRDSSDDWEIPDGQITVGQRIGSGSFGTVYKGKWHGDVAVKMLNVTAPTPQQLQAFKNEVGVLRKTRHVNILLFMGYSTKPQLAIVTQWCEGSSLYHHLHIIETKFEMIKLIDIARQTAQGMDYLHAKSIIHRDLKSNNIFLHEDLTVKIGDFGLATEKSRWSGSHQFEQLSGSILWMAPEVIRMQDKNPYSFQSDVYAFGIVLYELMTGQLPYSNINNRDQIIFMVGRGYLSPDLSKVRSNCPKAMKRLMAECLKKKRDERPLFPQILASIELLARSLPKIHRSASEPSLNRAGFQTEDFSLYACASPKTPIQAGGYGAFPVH
- Sequence (Q96SW2 whole entry): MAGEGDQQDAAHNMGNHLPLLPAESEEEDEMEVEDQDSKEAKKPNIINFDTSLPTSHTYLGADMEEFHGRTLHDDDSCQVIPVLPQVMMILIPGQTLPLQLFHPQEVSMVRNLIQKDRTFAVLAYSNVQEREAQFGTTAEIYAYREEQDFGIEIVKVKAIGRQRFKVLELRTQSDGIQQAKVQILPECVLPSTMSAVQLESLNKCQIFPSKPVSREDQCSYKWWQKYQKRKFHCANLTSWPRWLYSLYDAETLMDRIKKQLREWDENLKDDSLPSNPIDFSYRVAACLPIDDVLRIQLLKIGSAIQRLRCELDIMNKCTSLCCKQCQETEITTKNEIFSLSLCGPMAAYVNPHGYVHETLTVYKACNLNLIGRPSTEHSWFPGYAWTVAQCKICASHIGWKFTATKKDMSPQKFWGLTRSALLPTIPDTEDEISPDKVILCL
- Sequence (Q16531 whole entry partner): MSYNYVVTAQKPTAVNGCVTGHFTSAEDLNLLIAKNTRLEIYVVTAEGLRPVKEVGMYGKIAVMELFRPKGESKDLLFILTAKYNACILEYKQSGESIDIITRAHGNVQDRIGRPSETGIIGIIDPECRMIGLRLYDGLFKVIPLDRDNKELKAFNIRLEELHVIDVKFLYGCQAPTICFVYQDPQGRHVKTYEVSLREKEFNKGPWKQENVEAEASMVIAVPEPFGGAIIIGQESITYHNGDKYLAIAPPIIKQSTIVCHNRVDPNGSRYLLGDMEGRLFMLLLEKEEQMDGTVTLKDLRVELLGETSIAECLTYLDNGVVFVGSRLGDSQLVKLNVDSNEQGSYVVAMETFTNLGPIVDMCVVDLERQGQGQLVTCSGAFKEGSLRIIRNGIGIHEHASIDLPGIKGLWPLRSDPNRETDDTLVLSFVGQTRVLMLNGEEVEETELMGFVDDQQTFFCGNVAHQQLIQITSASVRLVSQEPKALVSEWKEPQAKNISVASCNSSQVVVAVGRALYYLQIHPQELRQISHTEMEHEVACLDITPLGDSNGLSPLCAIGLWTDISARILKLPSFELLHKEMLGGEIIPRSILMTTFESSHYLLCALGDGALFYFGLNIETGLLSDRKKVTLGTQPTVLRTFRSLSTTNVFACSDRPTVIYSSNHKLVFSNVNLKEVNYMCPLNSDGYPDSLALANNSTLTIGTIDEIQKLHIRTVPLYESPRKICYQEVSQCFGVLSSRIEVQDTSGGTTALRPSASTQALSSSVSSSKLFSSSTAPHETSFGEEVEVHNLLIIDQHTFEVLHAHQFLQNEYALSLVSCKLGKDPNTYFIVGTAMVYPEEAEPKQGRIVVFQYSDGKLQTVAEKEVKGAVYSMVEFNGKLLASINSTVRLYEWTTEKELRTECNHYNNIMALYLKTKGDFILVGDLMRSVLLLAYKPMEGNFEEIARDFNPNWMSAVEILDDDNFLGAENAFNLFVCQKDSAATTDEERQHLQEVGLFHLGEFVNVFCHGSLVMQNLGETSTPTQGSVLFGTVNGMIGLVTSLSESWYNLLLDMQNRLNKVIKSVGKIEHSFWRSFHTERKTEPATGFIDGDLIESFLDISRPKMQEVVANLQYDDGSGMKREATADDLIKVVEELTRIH
- assayName: BRAF V600E HiBiT Degradation Assay
- Assay type: cell-based
- conditionNotes: A375.10 cells, BRAF V600E, 2 hours; read-out: HiBiT-Degradation A375.10 BRAF 2 hours DC50

# annotated cases, reported DC50 shown
| compound | readoutLabel | valueReported |
| --- | --- | --- |
| CCN(C)S(=O)(=O)Nc1ccc(F)c(Oc2ccc3ncn(C4CC5(CCN(C6CCC(c7cc8c(cc7F)c(N7CCC(=O)NC7=O)nn8C)CC6)CC5)C4)c(=O)c3c2)c1C#N (single isomer, unassigned) [Compound 9] | DC50 | < 1000 nM |
| CCN(C)S(=O)(=O)Nc1ccc(F)c(Oc2ccc3ncn(C4CC5(CCN(C6CCC(c7cc8c(cc7F)c(N7CCC(=O)NC7=O)nn8C)CC6F)CC5)C4)c(=O)c3c2)c1C#N (single isomer, unassigned) [Compound 86] | DC50 | < 1000 nM |
| CCN(C)S(=O)(=O)Nc1ccc(F)c(Oc2ccc3ncn(C4CC5(C4)CN(CC4CN(c6cc7c(cc6F)c(N6CCC(=O)NC6=O)nn7C)C4)C5)c(=O)c3c2)c1C#N [Compound 313] | DC50 | < 1000 nM |
| Cn1nc(N2CCC(=O)NC2=O)c2cc(F)c(N3CC4(CC(N5CCC6(CC5)CC(n5cnc7ccc(Oc8c(F)ccc(NS(=O)(=O)N9CCOCC9)c8C#N)cc7c5=O)C6)C4)C3)cc21 [Compound 262] | DC50 | < 1000 nM |

The compound CCN(C)S(=O)(=O)Nc1ccc(F)c(Oc2ccc3ncnc(OC4CC5(CCN(C6CCC(c7cc8c(cc7F)c(N7CCC(=O)NC7=O)nn8C)CC6)CC5)C4)c3c2)c1C#N (single isomer, unassigned) [Compound 243] , when measured on BRAF V600E (Homo sapiens, UniProt P15056+Q96SW2, V600E), yielded DC50 of 1000 to 10000 nM
